Source: patent US4254256A

Amylase inhibitor unit values for the compounds below.
Tested on: amylase
assay text: Amylase test in vitro (amylase inhibitor unit)
Type: biochemical
condition context: 1 AIU = amount of inhibitor for about 50% inhibition; starch substrate, pH 6.9, 35° C.

Solved entries (count: 2):
Memo: OCC1=CC(NC2C(CO)OC(O[C@H]3[C@H](O)[C@@H](O)C(O[C@H]4[C@H](O)[C@@H](O)C(O)O[C@@H]4CO)O[C@@H]3CO)C(O)C2O)C(O)C(O)C1O (stereo partly shown) [[I] (wherein n=2 and m=0)] , reported Amylase inhibitor unit: 3.6×10^2 AIU/mg

Memo: OCC1=CC(NC2C(CO)OC(O[C@H]3[C@H](O)[C@@H](O)C(O)O[C@@H]3CO)C(O)C2O)C(O)C(O)C1O (stereo partly shown) [[I] (wherein n=1 and m=0)] , reported Amylase inhibitor unit: 3.4×10^2 AIU/mg

Continuing:
Memo: OCC1=CC(NC2C(CO)OC(O[C@H]3[C@H](O)[C@@H](O)C(O[C@H]4[C@H](O)[C@@H](O)C(O[C@H]5[C@H](O)[C@@H](O)C(O)O[C@@H]5CO)O[C@@H]4CO)O[C@@H]3CO)C(O)C2O)C(O)C(O)C1O (stereo partly shown) [[I] (wherein n=3, m=0)] , reported Amylase inhibitor unit: 1.4×10^3 AIU/mg

Memo: OCC1=CC(NC2C(CO)OC(O[C@H]3[C@H](O)[C@@H](O)C(O[C@H]4[C@H](O)[C@@H](O)C(O)O[C@@H]4CO)O[C@@H]3CO)C(O)C2O)C(O)C(O)C1OC1O[C@H](CO)[C@@H](O)[C@H](O)[C@H]1O (stereo partly shown) [[I] (wherein n=2, m=1)] , reported Amylase inhibitor unit: 1.2×10^3 AIU/mg
